tested on: MCF7 breast; experiment: NCI-60 one-dose screen, 48 h (100 = growth as untreated, 0 = no growth, -100 = all killed); conditions: 10 µM unless noted
About 83,000 compounds went through this panel and 20% of them were active in at least one assay; those are over-represented in the sample as a whole. Calls of active or inactive are those of the source. Rule for the calls: active = growth percent below 10; inactive = the rest.
Measured growth of individual entries

# COMPOUND, growth
measured = [
    ("N#CSc1c[nH]c2cccc(/C=C/C(=O)/C=C(/C=C/c3cccc4[nH]cc(SC#N)c34)OB(F)F)c12", "-22.6% (active)"),
    ("COc1ccc(-c2ccc(-c3ccc(C(=N)N)cc3)s2)cc1Cl", "-65.5% (active)"),
    ("COc1cc2c(cc1OCCCN1CCN(CCCOc3cc4c(cc3OC)C(=O)N3CC(F)(F)C[C@H]3C=N4)CC1)N=C[C@@H]1CC(F)(F)CN1C2=O", "25.5% (inactive)"),
    ("CN(/C(N)=N/N=C/c1c2ccccc2cc2ccccc12)C1CCCCC1", "32.8% (inactive)"),
    ("COC(=O)CC[C@H](C)[C@H]1CC[C@H]2[C@@H]3CC[C@@H]4CC5(CC[C@]4(C)[C@H]3CC(=O)[C@]12C)Nc1ccccc1NC5=NC(C)(C)C (stereo partly drawn)", "58.5% (inactive)"),
    ("O=C(N/N=C/c1ccc(Cl)cc1)c1[nH]c2ccc(Cl)cc2c1-c1ccccc1", "13.5% (inactive)"),
    ("CCCNC(=O)Nc1ccc2cc3ccc(NC(=O)NCCC)cc3nc2c1", "62.6% (inactive)"),
    ("N=C(N)c1ccc(-c2ccc(-c3ccccc3)o2)cc1", "-57.2% (active)"),
    ("NS(=O)(=O)c1ccc(N=Nc2c(O)n(Cc3ccccc3)c3ccc(Cl)cc23)cc1", "75.3% (inactive)"),
    ("Cc1ccc(-c2nc(N3CCCNCC3)c3oc(-c4ccc(C)cc4)nc3n2)cc1", "-64.8% (active)"),
    ("C=CC[Se]C(=O)Cc1c(C)n(C(=O)c2ccc(Cl)cc2)c2ccc(OC)cc12", "-4.29% (active)"),
    ("CC(C)Cn1cnc2c(=O)[nH]c(N)nc21", "86.7% (inactive)"),
    ("CCNCCNc1cc(C2CCCCC2)c(C#N)c2nc3ccccc3n12", "14.7% (inactive)"),
    ("CSc1nc(N)c(NS(=O)(=O)c2ccc(C(C)=O)cc2)c(=O)[nH]1", "85.9% (inactive)"),
    ("COc1ccc2cc1Oc1ccc(cc1)C[C@H]1c3c(cc4c(c3Oc3cc5c(cc3OC)CCN(C)[C@@H]5C2)OCO4)CCN1C", "34.6% (inactive)"),
    ("CCCCNC(=O)CC1=C(C)/C(=C/c2[nH]c(-c3ccc[nH]3)cc2OC)N=C1C", "22.3% (inactive)"),
    ("COc1ccc(/C=C/C(=O)c2cccc(OCCCCOc3cccc(C(=O)/C=C/c4ccc(OC)c(OC)c4)c3)c2)cc1OC", "44.3% (inactive)"),
    ("COc1ccc(C(C)=O)cc1S(=O)(=O)Nc1c(N)nc(SC)[nH]c1=O", "92.9% (inactive)"),
    ("CC(=O)Oc1ccc(N2C(=O)C(Cl)=C(Nc3cccc(C(F)(F)F)c3)C2=O)cc1", "92.8% (inactive)"),
    ("CCSc1nc2scc(C)c2c(=O)[nH]1", "96.3% (inactive)"),
    ("COC12C=C/C(=C(/C(=O)OCc3ccncn3)C(=O)CCCCCCCCC3(OC)C=C/C(=C(/C(=O)OCc4ccncn4)C(=O)CCCCCCCC1)O3)O2", "5.92% (active)"),
    ("C=CCn1c(SCC(=O)Nc2ccc(C(=O)/C=C/c3ccc(Cl)cc3)cc2)nnc1-c1ccc(Br)cc1", "13.4% (inactive)"),
    ("COc1ccc(NC(=O)c2sc3nc(C)c(C(=O)/C=C/c4ccccc4)cc3c2N)cc1", "14.9% (inactive)"),
    ("CC/C(=C(/c1ccc(Cl)cc1)c1ccc(OCCN(C)C)cc1)c1ccc(Cl)cc1", "20.5% (inactive)"),
    ("CCN1C(=O)N(CC)C2C1NN=c1s/c(=C\\c3ccccc3F)c(=O)n12 (stereo not drawn)", "15.2% (inactive)"),
    ("N#CC1=C(N)Oc2c(c(=O)[nH]c3ccc(Cl)cc23)C12C(=O)c1ccccc1C2=O", "96.4% (inactive)"),
    ("O=C(Nc1ccccc1O)c1ccc(CNC(=O)c2sccc2Nc2ccnc(C(F)(F)F)c2)cc1", "30.1% (inactive)"),
    ("Cc1ccc(NC(=O)Cn2cc(CN3CCN(c4ccnc5cc(Cl)ccc45)CC3)nn2)cc1", "79.4% (inactive)"),
    ("C#COc1cccc(Nc2c(C#N)cnc3ncc(NC(=O)CCl)cc23)c1", "5.39% [6.25 µM] (active)"),
    ("COc1ccc(NC2=C(I)C(=O)c3ncccc3C2=O)cc1", "-53.5% (active)"),
    ("COC(=O)Nc1nc2ccc(S(=O)c3ccccc3)cc2[nH]1 (stereo not drawn)", "44.1% (inactive)"),
    ("CC/C(=C(/c1ccc(Cl)cc1)c1ccc(OCCN2CCCCC2)cc1)c1ccc(OC)cc1", "15.3% (inactive)"),
    ("N#Cc1nc(-c2ccccc2)oc1S(=O)(=O)N1CCN(c2ccccc2)CC1", "51.5% (inactive)"),
    ("CCn1cc(C(=O)O)c(=O)c2cc(F)c(N3CCN(CC(=O)Nc4ccc(S(=O)(=O)Nc5nccc(C)n5)cc4)C(C)C3)c(F)c21 (stereo not drawn)", "96.7% (inactive)"),
    ("O=C1/C(=C/c2cn(-c3ccccc3)nc2-c2ccccc2)SC(=S)N1C1CCCCC1", "86.2% (inactive)"),
    ("Cc1nc2sc(C(=O)Nc3cccc4ccccc34)c(N)c2cc1C(O)c1ccccc1 (stereo not drawn)", "12.4% (inactive)"),
    ("CC(=O)/C(=C\\c1c(-c2ccccc2)[nH]c2ccccc12)S(C)(=O)=O", "6.97% (active)"),
    ("CC(C)c1ccc(C(=O)Nc2sc3c(c2C(N)=O)CCC(=O)C3)cc1", "5.13% (active)"),
]

* * *

tested on: SF-295 CNS; assay: NCI-60 one-dose screen, 48 h; settings: 10 µM unless noted
The panel holds about 83,000 compounds, 20% with a hit somewhere; the sample as a whole holds those more often. Calls of active or inactive are those of the source. The calls were made as follows: active = growth percent below 10; inactive = the rest.
Outcome codes: true = active, false = inactive

# COMPOUND, ANSWER LABEL
data = [
    ("CC(C)c1ccc(Cc2cnc(NC(=O)c3cc(Br)cs3)s2)cc1", "true"),
    ("CN(C)S(=O)(=O)c1cccc(C(=O)Nc2nc(-c3ccc(F)c(F)c3)cs2)c1", "false"),
    ("CC(=O)N1N=C(c2ccc(C(F)(F)F)c(F)c2)CC1c1[nH]c(C)c(C(=O)NCC(F)(F)F)c1C (stereo unspecified)", "false"),
    ("CC/C=C\\C[C@H](O)C/C=C1/C(=O)C=C[C@@H]1C/C=C\\CCCC(=O)N(C)C", "true"),
    ("COc1ccc(F)cc1/C=C/C(=O)/C=C(/C=C/c1cc(F)ccc1OC)OB(F)F", "false"),
    ("Cn1cc(-c2csc(-c3c[nH]c4ccccc34)n2)c2cnccc21", "true"),
    ("Oc1ccc(Cl)cc1/C=N\\NC(=S)N/N=C/c1cc(Cl)ccc1O", "false"),
    ("CN(C)CC(C)(C)C(=O)/C=C/c1ccccc1", "true"),
    ("CCOC(=O)[C@@H]1CSC(CC)=C(C(=O)O)N1", "false"),
    ("Cc1ccc(C)n1-c1ccccc1-n1c(C)ccc1C", "false"),
    ("COc1ccc(\\C=N/N=C(N)/C(N)=N\\N=C/c2ccc(OC)cc2)cc1", "false"),
    ("CCC(=O)Oc1ccc(-c2ccccc2)cc1Br", "false"),
    ("CC(C)=CCC[C@](C)(O)[C@H]1CC[C@]2(C)[C@@H]1CC[C@@H]1[C@@]3(C)C/C(=C/c4ccco4)C(=O)C(C)(C)[C@@H]3CC[C@]12C", "false"),
    ("O=C(NNC(=O)c1ccc(NC(=O)c2ccccn2)cc1)Nc1ccc([N+](=O)[O-])cc1", "false"),
    ("COc1cc(NS(=O)(=O)c2ccc(-c3cnc(C4CC4)o3)cc2)ccc1F", "false"),
    ("O=C(Nc1ccccc1O)c1ccc(CNC(=O)c2sccc2Nc2ccnc(C(F)(F)F)c2)cc1", "false"),
    ("Cc1cccc(/C=C2\\CN(C(=O)OC(C)(C)C)C/C(=C\\c3cccc(C)c3)C2=O)c1", "false"),
    ("Cc1cc(C(=O)O)c(C)n1-c1cccc(C(=O)O)c1", "false"),
    ("Cc1cc(=O)n(C(=O)Nc2ccccc2Cl)c2cc(O)ccc12", "false"),
    ("Cc1ccccc1/C=C/C(=O)c1cccc(OCCCCOc2cccc(C(=O)/C=C/c3ccccc3C)c2)c1", "false"),
    ("NC(=O)c1cc(I)ccc1NC(=O)/C=C/c1ccccc1", "true"),
]
